- assay_overview: Solubility measurement in various solvents at 50° C. (Procedure 2)
- Assay type: physicochemical
- test_context: 10% water in acetonitrile, organic solvent or mixture
recorded_endpoint: solubility (µg/mL)
Report the value in µg/mL with no unit label.

Per the record, `Cl.Cl.Cn1c(C(=O)Nc2cccc(-c3cccc(NC(=O)c4nc5c(n4C)CCN(CCC46CCC(C(=O)O)(CC4)C6)C5)c3Cl)c2Cl)nc2c1CCN(CCC13CCC(C(=O)O)(CC1)C3)C2` has solubility of 6610

----------
- assay_overview: Solubility measurement in various solvents at 25° C. (Procedure 1)
- Assay type: physicochemical
- test_context: DMSO, organic solvent or mixture, thermodynamic from solid
- Experimental: The solubility of Compound 1 Di-Hydrochloric Acid Salt Form I was measured according to Procedure 1 for solubility in 25° C. (Table 5) and Procedure 2 for 50° C. [table] [table]
recorded_endpoint: solubility

Per the record, `Cl.Cl.Cn1c(C(=O)Nc2cccc(-c3cccc(NC(=O)c4nc5c(n4C)CCN(CCC46CCC(C(=O)O)(CC4)C6)C5)c3Cl)c2Cl)nc2c1CCN(CCC13CCC(C(=O)O)(CC1)C3)C2` has solubility of > 50 mg/mL

----------
- assay_overview: Solubility measurement in various solvents at 50° C. (Procedure 2)
- Type: physicochemical
- test_context: DMSO, organic solvent or mixture
recorded_endpoint: solubility

Per the record, `Cl.Cl.Cn1c(C(=O)Nc2cccc(-c3cccc(NC(=O)c4nc5c(n4C)CCN(CCC46CCC(C(=O)O)(CC4)C6)C5)c3Cl)c2Cl)nc2c1CCN(CCC13CCC(C(=O)O)(CC1)C3)C2` has solubility of > 50 mg/mL

----------
- assay_overview: Solubility measurement in various solvents at 50° C. (Procedure 2)
- Assay type: physicochemical
- test_context: thermodynamic from solid, Water, solid phase Form VI
recorded_endpoint: solubility (mg/mL)
Report the value in mg/mL with no unit label.

Per the record, `Cl.Cl.Cn1c(C(=O)Nc2cccc(-c3cccc(NC(=O)c4nc5c(n4C)CCN(CCC46CCC(C(=O)O)(CC4)C6)C5)c3Cl)c2Cl)nc2c1CCN(CCC13CCC(C(=O)O)(CC1)C3)C2` has solubility of 14.8

----------
- assay_overview: Solubility measurement in various solvents at 50° C. (Procedure 2)
- Format: physicochemical
- test_context: MEK, organic solvent or mixture
recorded_endpoint: solubility (µg/mL)
Report the value in µg/mL with no unit label.

Per the record, `Cl.Cl.Cn1c(C(=O)Nc2cccc(-c3cccc(NC(=O)c4nc5c(n4C)CCN(CCC46CCC(C(=O)O)(CC4)C6)C5)c3Cl)c2Cl)nc2c1CCN(CCC13CCC(C(=O)O)(CC1)C3)C2` has solubility of 150

----------
- assay_overview: Solubility measurement in various solvents at 50° C. (Procedure 2)
- Assay type: physicochemical
- test_context: chloroform, organic solvent or mixture
- Experimental: The solubility of Compound 1 Di-Hydrochloric Acid Salt Form I was measured according to Procedure 1 for solubility in 25° C. (Table 5) and Procedure 2 for 50° C. [table] [table]
recorded_endpoint: solubility

Per the record, `Cl.Cl.Cn1c(C(=O)Nc2cccc(-c3cccc(NC(=O)c4nc5c(n4C)CCN(CCC46CCC(C(=O)O)(CC4)C6)C5)c3Cl)c2Cl)nc2c1CCN(CCC13CCC(C(=O)O)(CC1)C3)C2` has solubility of > 50 mg/mL

All values here come from patent US11866451B2.
